- System name: T1, B7-H3 on tumour cells (MDA-MB-468 cells, N87 cells) (UniProt Q5ZPR3 29-534, limits assumed)
- T1 construct: whole, on cells
- T1 sequence (looked up): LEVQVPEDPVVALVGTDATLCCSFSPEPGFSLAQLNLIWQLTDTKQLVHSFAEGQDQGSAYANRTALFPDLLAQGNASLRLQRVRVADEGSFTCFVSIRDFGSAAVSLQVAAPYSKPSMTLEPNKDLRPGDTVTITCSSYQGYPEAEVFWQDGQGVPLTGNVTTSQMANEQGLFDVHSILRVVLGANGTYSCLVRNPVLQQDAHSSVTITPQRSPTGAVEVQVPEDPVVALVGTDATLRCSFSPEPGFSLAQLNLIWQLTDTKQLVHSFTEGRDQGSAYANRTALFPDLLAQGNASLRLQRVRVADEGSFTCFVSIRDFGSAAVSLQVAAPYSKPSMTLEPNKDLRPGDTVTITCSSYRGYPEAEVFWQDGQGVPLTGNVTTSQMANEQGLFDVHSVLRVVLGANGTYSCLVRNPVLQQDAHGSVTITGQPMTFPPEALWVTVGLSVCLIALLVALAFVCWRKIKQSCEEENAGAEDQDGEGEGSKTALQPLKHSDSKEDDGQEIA
- Assay overview: flow cytometry on MDA-MB-468 cells, PE goat anti-human IgG Fc secondary; blank 0.9% in the positive gate
Measured % of cells in positive gate V1-R at 33.33 nM of individual entries
Please state the figure in %; there is no need to write the unit.

Solved entries:
| Binder | Experimental value |
| --- | --- |
| antibody V5 (antibody, human IgG1, kappa, V domains shown, Humanized from chimeric antibody M1; expressed in HEK293F cells; also called humanized antibody V5) VH: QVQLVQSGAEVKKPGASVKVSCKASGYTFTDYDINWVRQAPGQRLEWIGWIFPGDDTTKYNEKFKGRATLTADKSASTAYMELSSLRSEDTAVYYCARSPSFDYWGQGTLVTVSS VL: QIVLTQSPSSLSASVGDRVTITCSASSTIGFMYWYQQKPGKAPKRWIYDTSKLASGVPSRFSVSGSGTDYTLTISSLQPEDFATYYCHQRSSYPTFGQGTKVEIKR | 99.6 |
| antibody M1 (antibody, human IgG1, kappa, V domains shown, Chimeric antibody, murine variable regions on the IgG1 constant region; expressed in HEK293F cells; also called chimeric antibody M1) VH: QVQLQQSGPELVKPGASVRISCKASGYTFTDYDINWVQQRPGQGLEWIGWIFPGDDTTKYNEKFKGRATLTADKSSNTAYMQLNGLTSENSAVYFCARSPSFDYWGQGTLVTVSS VL: QIVLTQSPAIMSASPGERVTMTCSASSTIGFMYWYQQKPGTSPKRWIYDTSKLASGVPARFSVSGSGTSYSLTISSMEAEDAATYYCHQRSSYPTFGGGTKLEIKR | 99.7 |
| antibody V2 (antibody, human IgG1, kappa, V domains shown, Humanized from chimeric antibody M1; expressed in HEK293F cells; also called humanized antibody V2) VH: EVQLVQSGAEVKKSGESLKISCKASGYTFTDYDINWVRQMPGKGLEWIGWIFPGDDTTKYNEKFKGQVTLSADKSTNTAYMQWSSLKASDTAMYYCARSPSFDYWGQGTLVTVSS VL: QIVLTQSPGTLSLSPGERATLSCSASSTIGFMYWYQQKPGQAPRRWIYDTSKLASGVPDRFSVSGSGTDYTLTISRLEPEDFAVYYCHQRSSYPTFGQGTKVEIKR | 99.7 |
| antibody V1 (antibody, human IgG1, kappa, V domains shown, Humanized from chimeric antibody M1; expressed in HEK293F cells; also called humanized antibody V1) VH: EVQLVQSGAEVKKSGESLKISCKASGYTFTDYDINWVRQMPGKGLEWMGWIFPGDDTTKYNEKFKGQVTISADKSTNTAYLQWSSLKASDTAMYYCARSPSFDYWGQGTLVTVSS VL: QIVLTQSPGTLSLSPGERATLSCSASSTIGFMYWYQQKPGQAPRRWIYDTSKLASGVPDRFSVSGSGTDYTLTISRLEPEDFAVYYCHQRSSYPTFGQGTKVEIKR | 99.6 |
| antibody V3 (antibody, human IgG1, kappa, V domains shown, Humanized from chimeric antibody M1; expressed in HEK293F cells; also called humanized antibody V3) VH: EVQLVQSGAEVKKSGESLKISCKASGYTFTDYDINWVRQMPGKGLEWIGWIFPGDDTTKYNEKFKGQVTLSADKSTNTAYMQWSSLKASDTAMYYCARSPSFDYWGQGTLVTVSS VL: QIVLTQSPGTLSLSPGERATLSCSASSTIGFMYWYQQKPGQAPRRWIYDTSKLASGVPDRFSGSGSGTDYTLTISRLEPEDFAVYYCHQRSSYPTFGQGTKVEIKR | 98.9 |

Ask: Sample control antibody M30-H1-L4 (antibody, human IgG1, kappa, V domains shown, Control anti-B7-H3 antibody; also called HIL4) VH: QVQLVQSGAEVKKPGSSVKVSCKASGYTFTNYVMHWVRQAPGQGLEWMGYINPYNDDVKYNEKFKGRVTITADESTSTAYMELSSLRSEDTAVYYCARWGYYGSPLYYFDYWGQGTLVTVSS VL: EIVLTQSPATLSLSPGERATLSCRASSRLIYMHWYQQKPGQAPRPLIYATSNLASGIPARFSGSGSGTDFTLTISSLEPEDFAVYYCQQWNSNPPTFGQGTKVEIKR — what was its % of cells in positive gate V1-R at 33.33 nM?
Reply: 98.8
